biological target: human GLP-1R (Homo sapiens); assay: Human GLP-1 Receptor HEK293 cell cAMP assay, 104 fmol/mg GLP-1R expression density; assay type: cell-based; parameters: expressed in transfected cells; host or cells: HEK293 clonal cell line; settings: HEK293 cell line with 104 fmol/mg expression density of GLP-1R; geometric mean; read-out: EC50 nM (SEM, n), intracellular cAMP response, relative EC50
Sequence (P43220 24-463): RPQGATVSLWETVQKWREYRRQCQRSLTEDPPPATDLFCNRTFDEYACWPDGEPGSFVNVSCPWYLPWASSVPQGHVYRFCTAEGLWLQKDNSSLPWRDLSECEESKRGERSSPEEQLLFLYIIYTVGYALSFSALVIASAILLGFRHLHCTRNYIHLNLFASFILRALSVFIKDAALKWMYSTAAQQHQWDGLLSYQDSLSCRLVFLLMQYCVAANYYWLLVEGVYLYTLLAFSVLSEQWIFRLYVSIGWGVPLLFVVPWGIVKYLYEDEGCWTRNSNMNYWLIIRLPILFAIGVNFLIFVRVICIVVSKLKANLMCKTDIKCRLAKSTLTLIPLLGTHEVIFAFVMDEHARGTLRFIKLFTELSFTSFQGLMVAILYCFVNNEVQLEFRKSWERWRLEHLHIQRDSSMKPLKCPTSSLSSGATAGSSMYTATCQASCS
PROPERTY_LABEL: EC50 (nM)

N#Cc1ccc2c(c1)CCCOc1cc(ccc1Cc1nc3c(OCCNCC(F)(F)F)cc(C(=O)O)cc3n1C[C@@H]1CCO1)-c1cccc(n1)OC2 [Example 54]
654
Cn1ccc(-c2ccc3c(c2)CCCOc2cc(ccc2Cc2nc4ccc(C(=O)O)cc4n2C[C@@H]2CCO2)-c2cccc(n2)OC3)cc1=O [Example 79]
648
O=C(O)c1ccc2nc(Cc3ccc4cc3OCCCc3cc(CO)ccc3COc3cccc-4n3)n(C[C@@H]3CCO3)c2c1 [Example 25]
703
